Biological target: baculoviral GST-MLK2KDLZ (Homo sapiens)
Construct: 3 μg/ml of baculoviral GST-MLK2KDLZ; GST (N); host or cells: baculovirus expression system
Sequence (Q02779 98-440 limits assumed): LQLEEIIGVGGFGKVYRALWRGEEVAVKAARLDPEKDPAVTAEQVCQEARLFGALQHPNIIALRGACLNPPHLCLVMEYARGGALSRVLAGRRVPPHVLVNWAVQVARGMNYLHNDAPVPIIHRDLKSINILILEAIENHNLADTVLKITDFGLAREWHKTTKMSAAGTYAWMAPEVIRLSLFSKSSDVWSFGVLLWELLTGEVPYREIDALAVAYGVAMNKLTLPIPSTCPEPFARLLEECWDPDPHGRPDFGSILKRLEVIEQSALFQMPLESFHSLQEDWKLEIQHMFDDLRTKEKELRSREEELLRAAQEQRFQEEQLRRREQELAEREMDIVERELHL
Test: Mixed Lineage Kinase-2 inhibition assay (Millipore Multiscreen plate, 32P)
Type: biochemical
Conditions: 1 uM compound; 100 μM ATP
Experimental: Inhibition of Mixed Lineage Kinase-2 Activity Assays were performed using the Millipore Multiscreen plate format as described for MLK1. Each 50-μl assay mixture contained 20 mM Hepes, pH 7, 1 mM EGTA, 10 mM MgCl2, 1 mM DTT, 25 mM β-glycerophosphate, 100 μM ATP, 0.25 μCi [γ-^32P]ATP, 0.1% BSA, 500 μg/ml myelin basic protein (UBI #13-104), 2% DMSO, various concentrations of test compound, and 3 μg/ml of baculoviral GST-MLK2KDLZ. Samples were incubated for 15 min. at 37° C. […]
Measured MLK-2 Kinase % inhibition @ 1 uM of individual entries
Form entry: value (%) — number only.

record_smiles: COc1ccc2[nH]cc(C=C3C(=O)NN=C3c3ccoc3)c2c1
reading_unit: %
MLK-2 Kinase % inhibition @ 1 uM: 7

Asked: Param readout= MLK-2 Kinase % inhibition @ 1 uM; system= baculoviral GST-MLK2KDLZ (Homo sapiens); entry= "O=C1NN=C(c2ccoc2)C1=Cc1c[nH]c2ccc(OCc3ccccc3)cc12" ; returns value.
Given back: −13

Asked: Same for "O=C1NN=C(c2ccoc2)C1=Cc1c[nH]c2cccc(OCc3ccccc3)c12"
Given back: −2

Asked: Same for "Cc1cc(C)c(C=C2C(=O)NN=C2c2ccn(C)c2)[nH]1"
Given back: −6

Asked: Same for "Cc1c(I)[nH]c(C=C2C(=O)NN=C2c2ccoc2)c1I"
Given back: 6

Asked: Same for "O=C1NN=C(c2ccoc2)C1=Cc1ncc[nH]1"
Given back: −12

Asked: Same for "Cn1ccc(C2=NNC(=O)C2=Cc2c[nH]c3ccc(F)cc23)c1"
Given back: −14

Asked: Same for "O=C1NN=C(c2cc3ccccc3o2)C1=Cc1c[nH]c2ccccc12"
Given back: 4

Asked: Same for "O=C1NN=C(c2ccco2)C1=Cc1c[nH]c2cccc(OCc3ccccc3)c12"
Given back: −3

* * *

Measured inhibition at 1 µM of individual entries
Target: baculoviral GST-MLK3KD (Homo sapiens)
Construct: 2 μg/ml of baculoviral GST-MLK3KD; GST (N); host or cells: baculovirus expression system
Sequence (Q16584 117-379 limits assumed): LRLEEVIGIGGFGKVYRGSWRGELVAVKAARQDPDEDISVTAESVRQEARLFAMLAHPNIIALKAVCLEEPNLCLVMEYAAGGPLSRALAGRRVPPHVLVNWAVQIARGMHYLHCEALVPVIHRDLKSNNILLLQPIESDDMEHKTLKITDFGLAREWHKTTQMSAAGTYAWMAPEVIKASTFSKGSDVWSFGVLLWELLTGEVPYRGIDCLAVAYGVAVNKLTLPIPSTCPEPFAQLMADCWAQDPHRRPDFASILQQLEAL
Experiment: Mixed Lineage Kinase-3 inhibition assay (Millipore Multiscreen plate, 32P)
Assay type: biochemical
Conditions: 1 uM compound; 100 μM ATP; read-out: MLK-3 Kinase % inhibition @ 1 uM
Form entry: value (%) — number only.

record_smiles: O=C1NN=C(c2cccs2)C1=Cc1c[nH]c2ccccc12
inhibition at 1 µM (%): 38

record_smiles: Cc1cc(C)c(C=C2C(=O)NN=C2c2nccs2)[nH]1
inhibition at 1 µM (%): 57

record_smiles: Cc1cc(C)c(C=C2C(=O)NN=C2c2ccco2)[nH]1
inhibition at 1 µM (%): 50

Asked: Given the compound "O=C1NN=C(c2nccs2)C1=Cc1c[nH]c2ccccc12" , what is its reported inhibition at 1 µM?
Given back: 48

Asked: Same for "Cc1cc(C)c(C=C2C(=O)NN=C2c2cnccn2)[nH]1"
Given back: 72

Asked: Same for "Cc1cc(C)c(C=C2C(=O)NN=C2c2cc3ccccc3o2)[nH]1"
Given back: 67

Asked: Same for "Cc1cc(C)c(C=C2C(=O)NN=C2c2ccsc2)[nH]1"
Given back: 79

Asked: Same for "O=C1NN=C(c2ccco2)C1=Cc1c[nH]c2ccccc12"
Given back: 38
